# TGI per record follows
System: SN12C renal
Experiment: NCI tumour cell line growth inhibition, 48 h
Please reply with the bare figure in µM and do not write the unit itself.

Field: example entries. Status: answers known.
# compound, uom, value-measured
data = [
    ("Nc1c(C(=O)Nc2cccc(C(F)(F)F)c2)sc2nc3c(cc12)CCCCC3", "µM", 19.3),
    ("CC(C)=CCC(O)C1=CC(=O)c2c(O)ccc(O)c2C1=O (stereo not given)", "µM", 1.45),
]

Field: next compound
Name the reported TGI value associated with the compound CN(C)c1cc(NN=C(c2ccc(O)cc2)c2ccc(O)cc2)c([N+](=O)[O-])cc1[N+](=O)[O-] 23.7
